molecular target: mouse LTBP1-proTGFβ1 complex (mouse, UniProt Q8CG19 339-1712; P04202 30-390); experiment: cell-based or functional assay
Sequence (Q8CG19 339-1712 limits assumed, chain 1 of 2): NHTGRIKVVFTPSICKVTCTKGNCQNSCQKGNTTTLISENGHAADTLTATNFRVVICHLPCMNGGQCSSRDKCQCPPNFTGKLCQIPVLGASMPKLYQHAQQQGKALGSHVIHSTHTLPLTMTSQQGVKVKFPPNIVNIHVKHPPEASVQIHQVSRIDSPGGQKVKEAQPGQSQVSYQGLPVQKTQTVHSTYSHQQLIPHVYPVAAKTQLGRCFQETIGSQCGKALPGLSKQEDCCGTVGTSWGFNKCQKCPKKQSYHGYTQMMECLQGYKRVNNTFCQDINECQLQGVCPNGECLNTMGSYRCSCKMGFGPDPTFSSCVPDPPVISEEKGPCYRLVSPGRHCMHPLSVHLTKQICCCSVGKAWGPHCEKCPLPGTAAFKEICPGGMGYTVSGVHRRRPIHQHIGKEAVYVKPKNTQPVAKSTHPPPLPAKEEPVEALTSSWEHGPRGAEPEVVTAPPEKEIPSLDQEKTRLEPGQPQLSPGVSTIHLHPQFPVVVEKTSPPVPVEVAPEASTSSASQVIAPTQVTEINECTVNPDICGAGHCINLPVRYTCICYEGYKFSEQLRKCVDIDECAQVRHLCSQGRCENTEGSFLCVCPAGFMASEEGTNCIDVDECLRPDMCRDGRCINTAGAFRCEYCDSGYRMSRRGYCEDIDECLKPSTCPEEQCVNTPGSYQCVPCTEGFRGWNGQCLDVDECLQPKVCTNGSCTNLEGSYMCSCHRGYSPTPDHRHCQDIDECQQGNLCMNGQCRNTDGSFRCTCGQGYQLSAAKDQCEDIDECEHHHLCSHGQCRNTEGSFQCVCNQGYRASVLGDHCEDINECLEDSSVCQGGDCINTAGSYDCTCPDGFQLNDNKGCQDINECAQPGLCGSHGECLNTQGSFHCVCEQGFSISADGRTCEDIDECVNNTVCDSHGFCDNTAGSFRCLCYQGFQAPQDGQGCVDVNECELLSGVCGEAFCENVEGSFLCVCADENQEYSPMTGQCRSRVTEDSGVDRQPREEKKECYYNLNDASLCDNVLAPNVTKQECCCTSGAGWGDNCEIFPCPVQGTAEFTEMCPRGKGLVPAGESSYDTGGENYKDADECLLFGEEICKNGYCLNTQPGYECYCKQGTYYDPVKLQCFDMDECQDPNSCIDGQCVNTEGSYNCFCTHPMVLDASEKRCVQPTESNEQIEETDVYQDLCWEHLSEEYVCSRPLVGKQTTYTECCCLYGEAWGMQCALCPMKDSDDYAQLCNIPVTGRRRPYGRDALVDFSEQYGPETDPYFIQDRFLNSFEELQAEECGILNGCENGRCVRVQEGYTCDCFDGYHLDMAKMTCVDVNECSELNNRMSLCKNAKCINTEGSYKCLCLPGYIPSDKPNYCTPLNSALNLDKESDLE
Sequence (P04202 30-390 limits assumed, chain 2 of 2): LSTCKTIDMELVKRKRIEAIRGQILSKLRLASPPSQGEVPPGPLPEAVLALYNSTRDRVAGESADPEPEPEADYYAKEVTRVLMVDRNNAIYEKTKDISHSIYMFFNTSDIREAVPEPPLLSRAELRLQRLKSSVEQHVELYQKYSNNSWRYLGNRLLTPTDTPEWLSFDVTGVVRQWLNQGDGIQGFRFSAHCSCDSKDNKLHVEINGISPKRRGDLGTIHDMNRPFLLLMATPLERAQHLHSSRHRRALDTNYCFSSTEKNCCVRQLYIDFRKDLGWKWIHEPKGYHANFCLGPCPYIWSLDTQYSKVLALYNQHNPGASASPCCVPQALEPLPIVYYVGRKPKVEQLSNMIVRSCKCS
Parameter: IC50, mLTBP1 assay (CAGA12 luciferase) (nM)
Field format: number, assumed nM, no unit text.

Binder | IC50, mLTBP1 assay (CAGA12 luciferase) [nM]
SR-AB42 (antibody, IgG1, V domains shown, Cycle 3, lineage SR-AB23) VH: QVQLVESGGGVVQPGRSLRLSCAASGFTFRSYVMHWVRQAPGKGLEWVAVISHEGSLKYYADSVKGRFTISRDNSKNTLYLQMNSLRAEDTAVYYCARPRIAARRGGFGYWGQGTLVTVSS VL: NFMLTQPHSVSESPGKTVTISCTRSSGNIDNNYVQWYQQRPGSSPTTVIYEDNQRPSGVPDRFSGSIDSSSNSASLTISGLKTEDEADYYCQSYDYDTQGVVFGGGTKLTVL | 0.271
SR-AB40 (antibody, IgG1, V domains shown, Cycle 3, lineage SR-AB23) VH: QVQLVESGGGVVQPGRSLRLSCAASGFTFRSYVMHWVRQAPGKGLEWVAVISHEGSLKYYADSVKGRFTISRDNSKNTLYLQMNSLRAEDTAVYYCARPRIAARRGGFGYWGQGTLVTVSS VL: NFMLTQPHSVSESPGKTVTISCTRSSGNIDNNYVQWYQQRPGSSPTTVIYEDNQRPSGVPDRFSGSIDSSSNSASLTISGLKTEDEADYYCQSYDYSNQGVVFGGGTKLTVL | 0.333

Query: // lookup IC50, mLTBP1 assay (CAGA12 luciferase) for SR-AB44 (antibody, IgG1, V domains shown, Cycle 3, lineage SR-AB23) VH: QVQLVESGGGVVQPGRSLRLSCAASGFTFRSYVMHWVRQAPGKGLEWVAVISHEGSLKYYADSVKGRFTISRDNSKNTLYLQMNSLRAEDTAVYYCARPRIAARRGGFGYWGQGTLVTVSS VL: NFMLTQPHSVSESPGKTVTISCTRSHGNIDDNYVQWYQQRPGSSPTTVIYEDNVRPSGVPDRFSGSIDSSSNSASLTISGLKTEDEADYYCQSYDSDNQLVVFGGGTKLTVL
Result: 0.3
